Entry source: ChEMBL document CHEMBL3817772

# Tested on: Human immunodeficiency virus 1
# method.description: Inhibition of HIV-1 RT-RNase H domain expressed in Escherichia coli JM109 at 30 uM using HTS-1 as substrate preincubated for 10 mins followed by substrate/MgCl2 addition incubated for 10 mins by fluorescence-based assay
Entries and their inhibition values follow.
observed.property: inhibition

INSERT INTO assay_data (structure, assay_value) VALUES
  ('O=C(O)c1cn(Cc2ccc(-c3cnc4ccccc4c3)cc2)cc(O)c1=O', '95%'),
  ('O=C(O)c1cn(CC2(c3ccccc3)CCCC2)cc(O)c1=O', '75%'),
  ('O=C(O)c1cn(Cc2cccc3ccccc23)cc(O)c1=O', '58%'),
  ('COc1ccc(Cn2cc(O)c(=O)c(C(=O)O)c2)cc1', '69%'),
  ('O=C(O)c1cn(Cc2ccc(-c3ccccc3)cc2)cc(O)c1=O', '68%'),
  ('NS(=O)(=O)c1ccc(-c2ccc(Cn3cc(O)c(=O)c(C(=O)O)c3)cc2)cc1', '97%');
